- System: heterologous L-rhamnose-inducible system
- PROTOCOL_DESCRIPTION: relative induction of RFP reporter vs primary effector; higher = stronger activation
- DETAILS: inducer concentration 5 mM; 6 h; Cupriavidus necator H16; minimal medium + 0.4% gluconate
For each of the compounds below, state its relative induction of RFP reporter.
Respond numerically; units are % and should not be typed.

# return recorded relative induction of RFP reporter for input C=C(CC(=O)O)C(=O)O [itaconate]
0.00546

Please supply the value of reported relative induction of RFP reporter for the item O=C(O)CCO [3-hydroxypropanoate]
0.00446

Give a short answer stating reported relative induction of RFP reporter for O=C(O)CS(=O)(=O)O [sulfonatoacetate] .
0.0242

For the compound O=c1[nH]c(=O)c2nc[nH]c2[nH]1 [xanthine] , give its reported relative induction of RFP reporter.
0.0204

# return recorded relative induction of RFP reporter for entry NCCC(=O)O [β-alanine]
0.0016

Tell me its relative induction of RFP reporter given CC(=O)C(C)O (stereo unspecified) [acetoin] as the entry.
-0.0013

Identify measured relative induction of RFP reporter corresponding to O=C(O)c1ccc(O)c(O)c1 [3,4-dihydroxybenzoate]
0.0186

Give the reported value of relative induction of RFP reporter for this record: O=C(O)C1CCCCC1 [cyclohexane-1-carboxylate]
-0.00651

Give me measured relative induction of RFP reporter, please, for this compound: O=CO [formate]
0.0165

Retrieve relative induction of RFP reporter measured for N[C@@H](Cc1ccc(O)cc1)C(=O)O [L-tyrosine] and print it.
0.00824

Retrieve relative induction of RFP reporter measured for C=CC(=O)O [acrylate] and print it.
0.000569
